Listed here: items and their measured CC50.
Test: in vitro
Settings: human

| smiles_structure | lt_gt_eq | CC50 (µM) |
| --- | --- | --- |
| Cc1cn([C@H]2C[C@H](N)[C@@H](C[Se]c3cccc4ccccc34)O2)c(=O)[nH]c1=O | = | 156 |
| Cc1ccc([Se]C[C@H]2O[C@@H](n3cc(C)c(=O)[nH]c3=O)C[C@@H]2N)cc1 | > | 200 |
| Cc1cn([C@H]2C[C@H](N)[C@@H](C[Te]c3ccc(Cl)cc3)O2)c(=O)[nH]c1=O | = | 35.2 |
| Cc1cn([C@H]2C[C@H](N)[C@@H](C[Te]c3ccccc3)O2)c(=O)[nH]c1=O | = | 44.6 |
| Cc1cn([C@H]2C[C@H](N)[C@@H](C[Se]c3ccc(Cl)cc3)O2)c(=O)[nH]c1=O | > | 200 |
| COc1ccc([Se]C[C@H]2O[C@@H](n3cc(C)c(=O)[nH]c3=O)C[C@@H]2N)cc1 | > | 200 |
| Cc1ccc([Te]C[C@H]2O[C@@H](n3cc(C)c(=O)[nH]c3=O)C[C@@H]2N)cc1 | = | 68.7 |
| COc1ccc([Te]C[C@H]2O[C@@H](n3cc(C)c(=O)[nH]c3=O)C[C@@H]2N)cc1 | = | 30.7 |
| Cc1cn([C@H]2C[C@H](N)[C@@H](C[Te]c3cccc4ccccc34)O2)c(=O)[nH]c1=O | = | 34.3 |
| Cc1cn([C@H]2C[C@H](N)[C@@H](C[Se]c3ccccc3)O2)c(=O)[nH]c1=O | > | 200 |
